Tested on: 186277-243-T-J2-PDC complex spheroids, viability
assay: Anticancer human tumor 186277-243-T-J2-PDC patient-derived colon adenocarcinoma cell line growth inhibition [RAS]
details: second compound 0.000949 µM; first compound 0.00949 µM; hits give low values
parameter: viability, T/C (%)
Note: unit % is implicit; provide only the numeric part.

# compound, viability, T/C / %
measured = [
    ("CC1(C)CCC(Nc2ncc(C(F)(F)F)c(-c3c[nH]c4c(P(C)(C)=O)c(C#N)ccc34)n2)CN1 (centres undefined) + CCn1c(-c2cc(N3CCN(C)CC3)cnc2C(C)OC)c2c3cc(ccc31)-c1csc(n1)CC(NC(=O)C1CC1C)C(=O)N1CCCC(N1)C(=O)OCC(C)(C)C2", 88),
    ("CCc1c2c(nc3ccc(O)cc13)-c1cc3c(c(=O)n1C2)COC(=O)[C@]3(O)CC + CCn1c(-c2cc(N3CCN(C)CC3)cnc2C(C)OC)c2c3cc(ccc31)-c1csc(n1)CC(NC(=O)C1CC1C)C(=O)N1CCCC(N1)C(=O)OCC(C)(C)C2", 39.5),
]

### Prompt Fill blank: measured viability, T/C of the compound CCc1c2c(nc3ccc(O)cc13)-c1cc3c(c(=O)n1C2)COC(=O)[C@]3(O)CC + CCn1c(-c2cccnc2C(C)OC)c2c3cc(ccc31)N1CCOC(CC(NC(=O)C(C(C)C)N(C)C(=O)C3(F)CCN(C(=O)C#CC(C)(C)N(C)C)CC3)C(=O)N3CCCC(N3)C(=O)OCC(C)(C)C2)C1 is ____.
### Response 52.5

### Prompt Fill blank: measured viability, T/C of the compound CC1(C)CCC(Nc2ncc(C(F)(F)F)c(-c3c[nH]c4c(P(C)(C)=O)c(C#N)ccc34)n2)CN1 (centres undefined) + CCn1c(-c2cccnc2C(C)OC)c2c3cc(ccc31)N1CCOC(CC(NC(=O)C(C(C)C)N(C)C(=O)C3(F)CCN(C(=O)C#CC(C)(C)N(C)C)CC3)C(=O)N3CCCC(N3)C(=O)OCC(C)(C)C2)C1 is ____.
### Response 112

* * *

Test system: 186277-243-T-J2-PDC complex spheroids, viability
assay: Anticancer human tumor 186277-243-T-J2-PDC cell line growth inhibition [RAS]; active means viability on the fitted dose curve at most 10% of control; inactive means the rest;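 note: spheroids exposed to compounds for 7 days before viability read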
details: second compound 0.0316 µM; first compound 0.3 µM
Just give me one of these, please: 1 for active, -1 for inactive

Answered examples (3):
# molecule, assigned_category
data = [
    ("CC1(C)CCC(Nc2ncc(C(F)(F)F)c(-c3c[nH]c4c(P(C)(C)=O)c(C#N)ccc34)n2)CN1 (centres undefined) + C#Cc1c(F)ccc2cc(O)cc(-c3ncc4c(N5CC6CCC(C5)N6)nc(OCC56CCCN5CC(F)C6)nc4c3F)c12", -1),
    ("CC1(C)CCC(Nc2ncc(C(F)(F)F)c(-c3c[nH]c4c(P(C)(C)=O)c(C#N)ccc34)n2)CN1 (centres undefined) + C=CC(=O)N1CCN(c2nc(OCC3CCCN3C)nc3c(F)c(-c4nc(N)cc(C)c4C(F)(F)F)c(Cl)cc23)C(C)C1", -1),
    ("CCc1c2c(nc3ccc(O)cc13)-c1cc3c(c(=O)n1C2)COC(=O)[C@]3(O)CC + C=CC(=O)N1CCN(c2nc(OCC3CCCN3C)nc3c(F)c(-c4nc(N)cc(C)c4C(F)(F)F)c(Cl)cc23)C(C)C1", -1),
]

Switching to the query record.
### Prompt Per the assay record, what outcome was assigned to CCc1c2c(nc3ccc(O)cc13)-c1cc3c(c(=O)n1C2)COC(=O)[C@]3(O)CC + C#Cc1c(F)ccc2cc(O)cc(-c3ncc4c(N5CC6CCC(C5)N6)nc(OCC56CCCN5CC(F)C6)nc4c3F)c12 ?
### Response 1
